Values from patent US9328112B2

Molecular target: CDK9/Cyclin T1 (Homo sapiens (Human))
Sequence (P50750 whole entry): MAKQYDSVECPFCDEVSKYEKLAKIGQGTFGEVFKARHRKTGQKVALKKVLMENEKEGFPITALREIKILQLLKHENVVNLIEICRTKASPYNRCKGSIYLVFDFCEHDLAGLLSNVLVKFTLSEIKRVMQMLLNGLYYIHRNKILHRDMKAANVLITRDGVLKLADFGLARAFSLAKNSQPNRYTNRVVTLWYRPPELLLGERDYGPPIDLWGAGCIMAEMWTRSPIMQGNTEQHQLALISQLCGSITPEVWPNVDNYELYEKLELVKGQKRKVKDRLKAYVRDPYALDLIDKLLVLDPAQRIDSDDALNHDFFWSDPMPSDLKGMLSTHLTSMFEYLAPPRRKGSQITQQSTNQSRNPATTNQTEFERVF
Sequence (O60563 whole entry partner): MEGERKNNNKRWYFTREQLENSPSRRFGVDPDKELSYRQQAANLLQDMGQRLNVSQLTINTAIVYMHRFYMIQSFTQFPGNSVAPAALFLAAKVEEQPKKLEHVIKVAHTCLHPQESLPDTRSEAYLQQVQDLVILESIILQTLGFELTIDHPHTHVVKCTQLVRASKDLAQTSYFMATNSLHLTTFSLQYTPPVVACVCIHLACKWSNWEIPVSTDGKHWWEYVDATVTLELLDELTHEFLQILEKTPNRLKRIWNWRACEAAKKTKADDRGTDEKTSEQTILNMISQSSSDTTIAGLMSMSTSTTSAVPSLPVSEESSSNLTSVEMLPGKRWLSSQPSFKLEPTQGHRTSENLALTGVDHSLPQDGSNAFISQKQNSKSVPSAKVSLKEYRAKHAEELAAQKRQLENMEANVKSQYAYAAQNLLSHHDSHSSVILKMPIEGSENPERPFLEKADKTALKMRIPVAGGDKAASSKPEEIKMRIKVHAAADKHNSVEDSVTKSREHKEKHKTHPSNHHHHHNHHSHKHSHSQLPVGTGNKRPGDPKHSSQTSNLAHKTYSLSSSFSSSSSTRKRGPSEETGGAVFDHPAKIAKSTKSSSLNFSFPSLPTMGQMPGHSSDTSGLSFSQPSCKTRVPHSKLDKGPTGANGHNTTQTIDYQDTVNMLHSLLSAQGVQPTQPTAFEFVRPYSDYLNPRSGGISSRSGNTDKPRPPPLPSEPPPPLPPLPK
Test: CDK9 enzyme assay (LANCE ULight TR-FRET kinase assay)
Conditions: 1000 μM ATP, 100 nM ULight MBP, kinase reaction 1 hour
pIC50: −log10 of the molar value. Where a name gives a salt, the structure may show the parent alone.
Note to self: values exactly at 7 are Criterion met. So pIC50 at or above 7 is Criterion met, below is Criterion not met.

Example results:
Determine whether measured pIC50 meets or exceeds 7 for "CC[C@@H]1c2c(C3=CCNCC3)[nH]c3nccc(c23)-c2cc(F)ccc2N1C"
Criterion not met

Determine whether measured pIC50 meets or exceeds 7 for "CN1Cc2c(C3=CCN(S(C)(=O)=O)CC3(C)C)[nH]c3nccc(c23)-c2cc(F)ccc21"
Criterion not met

Determine whether measured pIC50 meets or exceeds 7 for "CN1Cc2c(C3=CCN([C@H]4CC[C@H](C(=O)O)CC4)CC3)[nH]c3nccc(c23)-c2cc(F)c(F)cc21"
Criterion met

Determine whether measured pIC50 meets or exceeds 7 for CN1Cc2c(C3=CCN(C4CCC(=CC(=O)O)CC4)CC3)[nH]c3nccc(c23)-c2cc(F)ccc21 (stereo not drawn)
Criterion met

Determine whether measured pIC50 meets or exceeds 7 for CCC1c2c(C3=CCN(C(=O)OC(C)(C)C)CC3)[nH]c3nccc(c23)-c2cc(F)ccc2N1C (stereo not drawn)
Criterion not met

Determine whether measured pIC50 meets or exceeds 7 for "CN1Cc2c(C3=C[C@H](CO)NCC3)[nH]c3nccc(c23)-c2cc(F)c(F)cc21"
Criterion met

More entries:
Determine whether measured pIC50 meets or exceeds 7 for CN(CC(O)CO)C(=O)CN1CC=C(c2[nH]c3nccc4c3c2CN(C)c2ccc(F)cc2-4)CC1 (stereo not drawn)
Criterion met

Determine whether measured pIC50 meets or exceeds 7 for "CNC(=O)N1[C@H]2CC[C@@H]1C=C(c1[nH]c3nccc4c3c1CN(C)c1ccc(F)cc1-4)C2"
Criterion not met

Determine whether measured pIC50 meets or exceeds 7 for "CN(CCO)C(=O)CN1CC=C(c2[nH]c3nccc4c3c2CN(C)c2ccc(F)cc2-4)C(C)(C)C1"
Criterion not met

Determine whether measured pIC50 meets or exceeds 7 for CN1c2ccc(F)cc2-c2ccnc3[nH]c(C4=CCNCC4)c(c23)C1C(=O)O (stereo not drawn)
Criterion not met

Determine whether measured pIC50 meets or exceeds 7 for "CN1Cc2c(C3=C[C@H]4CC[C@@H](C3)N4)[nH]c3nccc(c23)-c2cc(F)ccc21"
Criterion met

Determine whether measured pIC50 meets or exceeds 7 for "CN(C)C(=O)CN1CC=C(c2[nH]c3nccc4c3c2CN(C)c2cc(F)c(F)cc2-4)CC1"
Criterion met

Determine whether measured pIC50 meets or exceeds 7 for CCC1c2c(C3=CCNCC3)[nH]c3nccc(c23)-c2cc(F)ccc2N1C (stereo not drawn) [Example 9, dihydrochloride]
Criterion met

Determine whether measured pIC50 meets or exceeds 7 for "CN1Cc2c(C3=CCN([C@H]4CC[C@H](C(=O)O)CC4)CC3)[nH]c3nccc(c23)-c2cc(F)ccc21"
Criterion met

Determine whether measured pIC50 meets or exceeds 7 for "CN(CCO)C(=O)CN1CC=C(c2[nH]c3nccc4c3c2CN(C)c2ccc(F)cc2-4)CC1"
Criterion met

Determine whether measured pIC50 meets or exceeds 7 for "CN1Cc2c(C3=CCN(S(C)(=O)=O)CC3)[nH]c3nccc(c23)-c2cc(F)c(F)cc21"
Criterion met

Determine whether measured pIC50 meets or exceeds 7 for "CN(C)C(=O)CN1CC=C(c2[nH]c3ncc(F)c4c3c2CN(C)c2ccccc2-4)CC1"
Criterion met
